The measurements presented in this section are drawn from ChEMBL document CHEMBL4513216.

- protocolNotes: Toxicity liver stage against HepG2, at 10uM
- Format: cell-based
- Set-up: test concentration 10 uM, cell line HepG2-A16-CD81EGFP
- reportedConditions: human, HepG2-A16-CD81EGFP cells; read-out: INHIBITION
measurementLabel: cytotoxicity at 10 µM (%)
Respond with the bare value in %.

Completed entries (count: 10):
>>> df
                                   compound       measurementlabel  value
0  COc1ccc(C(=O)N2CCOCC(CO)C2)cc1N1CCOCC1 (stereo not drawn)  cytotoxicity at 10 µM    -14
1  CCN(Cc1ccoc1)C(C(N)=O)c1cccc(Br)c1 (stereo not drawn)  cytotoxicity at 10 µM   2.34
2  Cc1ccccc1N1CCN(C2CCCN(C(=O)CCC(C)C)C2)CC1 (stereo not drawn)  cytotoxicity at 10 µM  -5.95
3      CC(=O)Nc1ncc(S(=O)(=O)N2CCC(C)CC2)s1  cytotoxicity at 10 µM   14.8
4  COc1ccc(C2CCCN2S(=O)(=O)N(C)CC(C)C)cc1 (stereo not drawn)  cytotoxicity at 10 µM  -6.72
5  Cc1nc(O)cc([C@@H]2CN(C(=O)C3CC3)C[C@H]2c2ccccc2F)n1  cytotoxicity at 10 µM   4.95
6  O=C(COc1ccc(F)cc1)N1CCO[C@H]2[C@@H](OCC3CC3)CC[C@@H]21  cytotoxicity at 10 µM   -101
7  CC(=O)N1N=C(c2cccs2)OC1C(=O)Nc1ccc(C)cc1 (stereo not drawn)  cytotoxicity at 10 µM  -4.14
8  CN(C)c1nc2cn(C3CC(C)(C)NC(C)(C)C3)c(=O)c-2c[nH]1  cytotoxicity at 10 µM   6.39
9  Cc1ccc(Nc2ncnc3c2CCN(CC2CCOC2)CC3)cc1 (stereo not drawn)  cytotoxicity at 10 µM   5.32

Reported cytotoxicity at 10 µM for CC(C)c1n[nH]c(C(=O)Nc2ccccn2)c1Br was -31.7

CC(C)=CCN1C[C@@H]2CC[C@H]1CN(C(=O)Cc1c(C)[nH]c(C)nc1=O)C2 yielded cytotoxicity at 10 µM of 2.48

// field: cytotoxicity at 10 µM; key: Cc1cc(-c2cc(N)c(=O)n(CC(=O)N3CCCC(C)C3)n2)c(C)o1 (stereo not drawn) ; value = 4.62
